Ref: a polymer gas permeability compilation

// reported log10 of CO2 permeability per item
result-type: log10 of CO2 permeability (log10 of the value in Barrer)

[[record]]
compound = "*Oc1ccc(C2(c3ccc(OC(=O)c4cccc(C(*)=O)c4)cc3)OC(=O)c3ccccc32)cc1 (repeat unit)"
reported_measurement = 0.90

[[record]]
compound = "*C(=C(*)c1ccc2c(c1)C(C)(C)CC2(C)C)c1ccc(F)c(F)c1 (repeat unit)"
reported_measurement = 4.65

[[record]]
compound = "*C(=C(*)c1ccc2c(c1)C(C)(C)c1ccccc1-2)c1cccc(F)c1 (repeat unit)"
reported_measurement = 4.26

[[record]]
compound = "*CC(*)(C)C(=O)OCC(F)(F)C(F)(F)C(F)(F)C(F)(F)C(F)(F)C(F)(F)C(F)(F)F (repeat unit)"
reported_measurement = 2.11

[[record]]
compound = "*Oc1ccc(Oc2ccc(C(=O)c3ccc(*)cc3)cc2)cc1 (repeat unit)"
reported_measurement = -0.02

[[record]]
compound = "*Oc1c(C)cc(*)c(C(=O)c2ccccc2)c1C (repeat unit)"
reported_measurement = 1.16

[[record]]
compound = "*c1ccc(Oc2ccc(C3(c4ccc(Oc5ccc(N6C(=O)c7ccc(C(c8ccc9c(c8)C(=O)N(*)C9=O)(C(F)(F)F)C(F)(F)F)cc7C6=O)c(C)c5)cc4)OC(=O)c4ccccc43)cc2)cc1C (repeat unit)"
reported_measurement = 1.33

[[record]]
compound = "*c1ccc(-c2ccc(Oc3ccc(C4(c5ccc(Oc6ccc(-c7ccc(N8C(=O)c9ccc(C(=O)c%10ccc%11c(c%10)C(=O)N(*)C%11=O)cc9C8=O)cc7)cc6C(F)(F)F)cc5)c5ccccc5C(=O)N4c4ccccc4)cc3)c(C(F)(F)F)c2)cc1 (repeat unit)"
reported_measurement = 1.23

[[record]]
compound = "*Oc1ccc2c(c1)C1(CC2(C)C)CC(C)(C)c2ccc(OC(=O)c3cccc(C(*)=O)c3)cc21 (repeat unit)"
reported_measurement = 1.28

[[record]]
compound = "*c1cccc(Oc2cccc(N3C(=O)c4ccc(C(c5ccc6c(c5)C(=O)N(*)C6=O)(C(F)(F)F)C(F)(F)F)cc4C3=O)c2)c1 (repeat unit)"
reported_measurement = 0.32

[[record]]
compound = "*Oc1c(C)cc(C(C)(C)c2cc(C)c(Oc3ccc(S(=O)(=O)c4ccc(*)cc4)cc3)c(C)c2)cc1C (repeat unit)"
reported_measurement = 1.32

[[record]]
compound = "*Oc1ccc(C(c2ccc(OC(*)=O)cc2)(C(F)(F)F)C(F)(F)F)cc1 (repeat unit)"
reported_measurement = 1.38

[[record]]
compound = "*Oc1c(C)cc(*)c(C(=O)c2ccc(C)cc2)c1C (repeat unit)"
reported_measurement = 1.33

[[record]]
compound = "*CC(*)C(=O)OCC (repeat unit)"
reported_measurement = 2.25

[[record]]
compound = "*O[Si](*)(C)c1ccccc1 (repeat unit)"
reported_measurement = 2.38


====

Known log10 of CO2 permeability of a selection of compounds
result-type: log10 of CO2 permeability (log10 of the value in Barrer)

[[record]]
compound = "*Oc1ccc(C(C)(C)c2ccc(C(C)(C)c3ccc(Oc4ccc(S(=O)(=O)c5ccc(*)cc5)cc4)cc3)cc2)cc1 (repeat unit)"
reported_measurement = 0.83

[[record]]
compound = "*c1ccc(Sc2ccc(N3C(=O)c4ccc(C(c5ccc6c(c5)C(=O)N(*)C6=O)(C(F)(F)F)C(F)(F)F)cc4C3=O)cc2)cc1 (repeat unit)"
reported_measurement = 1.36

[[record]]
compound = "*CC[Si](C)(C)c1ccc([Si](*)(C)C)cc1 (repeat unit)"
reported_measurement = 0.60

[[record]]
compound = "*c1cc(-c2nc3cc(-c4ccc5[nH]c(*)nc5c4)ccc3[nH]2)cc(C(C)(C)C)c1 (repeat unit)"
reported_measurement = 0.28

[[record]]
compound = "*c1ccc(N(c2ccccc2)c2ccc(N3C(=O)c4ccc(C(c5ccc6c(c5)C(=O)N(*)C6=O)(C(F)(F)F)C(F)(F)F)cc4C3=O)cc2)cc1 (repeat unit)"
reported_measurement = 0.67

[[record]]
compound = "*c1ccc(Oc2ccc(C(c3ccccc3)(c3ccccc3)c3ccc(Oc4ccc(*)cc4)cc3)cc2)cc1 (repeat unit)"
reported_measurement = 0.98

[[record]]
compound = "*c1cccc(S(=O)(=O)c2cccc(N3C(=O)c4ccc(C(c5ccc6c(c5)C(=O)N(*)C6=O)(C(F)(F)F)C(F)(F)F)cc4C3=O)c2)c1 (repeat unit)"
reported_measurement = 0.37


====

Think of 0.3 Barrer as a floor: if N2 permeability stands on it or above, it is True; beneath it, False.

[[record]]
compound = "*c1ccc2c(-c3c(OC(C)=O)ccc4cc(N5C(=O)c6ccc(C(c7ccc8c(c7)C(=O)N(*)C8=O)(C(F)(F)F)C(F)(F)F)cc6C5=O)ccc34)c(OC(C)=O)ccc2c1 (repeat unit)"
group_label = "False"

[[record]]
compound = "*c1ccc(Oc2ccc(C(=O)c3ccc(Oc4ccc(C(*)(c5ccccc5)C(F)(F)F)cc4)cc3)cc2)cc1 (repeat unit)"
group_label = "False"

[[record]]
compound = "*c1c(C)cc(Cc2cc(C)c(-n3c(=O)c4cc5c(=O)n(*)c(=O)c5cc4c3=O)c(C)c2)cc1C (repeat unit)"
group_label = "True"

[[record]]
compound = "*c1ccc(Oc2ccc(C3(c4ccc(Oc5ccc(N6C(=O)c7ccc(C(c8ccc9c(c8)C(=O)N(*)C9=O)(C(F)(F)F)C(F)(F)F)cc7C6=O)cc5)cc4)c4ccccc4-c4ccccc43)cc2)cc1 (repeat unit)"
group_label = "True"

[[record]]
compound = "*CC(*)(C)C(=O)OCC (repeat unit)"
group_label = "False"

[[record]]
compound = "*c1c(C)cc(C)c(N2C(=O)c3ccc(-c4ccc5c(c4)C(=O)N(*)C5=O)cc3C2=O)c1C (repeat unit)"
group_label = "True"


====

CH4 permeability by entry:
result-type: CH4 permeability

[[record]]
compound = "*c1ccc(Oc2ccc(C(c3ccc(Oc4ccc(N5C(=O)c6ccc(C(=O)c7ccc8c(c7)C(=O)N(*)C8=O)cc6C5=O)cc4C(F)(F)F)cc3)(C(F)(F)F)C(F)(F)F)cc2)c(C(F)(F)F)c1 (repeat unit)"
reported_measurement = "0.189 Barrer"

[[record]]
compound = "*c1ccc(Oc2ccc(S(=O)(=O)c3ccc(Oc4ccc(N5C(=O)c6ccc(-c7ccc8c(c7)C(=O)N(*)C8=O)cc6C5=O)cc4)cc3)cc2)cc1 (repeat unit)"
reported_measurement = "0.0397 Barrer"

[[record]]
compound = "*CC(C)C(=O)OC(C)C(*)=O (repeat unit)"
reported_measurement = "1 Barrer"


====

Measured N2 permeability of individual entries
result-type: N2 permeability (Barrer)

[[record]]
compound = "*Cc1ccc(C*)c(Cl)c1 (repeat unit)"
reported_measurement = 0.006

[[record]]
compound = "*c1cc2c(cc1C)-c1cc(C)c(N3C(=O)c4ccc(C(c5ccc6c(c5)C(=O)N(*)C6=O)(C(F)(F)F)C(F)(F)F)cc4C3=O)cc1S2(=O)=O (repeat unit)"
reported_measurement = 3.27

[[record]]
compound = "*Oc1ccc(Oc2cccc(*)c2C#N)c(-c2cccc(C(F)(F)F)c2)c1 (repeat unit)"
reported_measurement = 0.15

[[record]]
compound = "*c1c(C)cc(-c2cc(C)c(N3C(=O)c4ccc(Oc5cc(C(C)(C)C)c(Oc6ccc7c(c6)C(=O)N(*)C7=O)cc5C(C)(C)C)cc4C3=O)c(C)c2)cc1C (repeat unit)"
reported_measurement = 4.9


====

result-type: CO2 permeability (Barrer)

[[record]]
compound = "*C(=C(*)c1ccc(-c2ccccc2)cc1)c1ccccc1 (repeat unit)"
result_type = "CO2 permeability"
scale_unit = "Barrer"
reported_measurement = 1300

[[record]]
compound = "*Oc1c(Br)cc(C(C)(C)c2cc(Br)c(OC(=O)c3cccc(C(*)=O)c3)c(Br)c2)cc1Br (repeat unit)"
result_type = "CO2 permeability"
scale_unit = "Barrer"
reported_measurement = 4.93

[[record]]
compound = "*c1ccc(Oc2ccc(C3(c4ccc(Oc5ccc(N6C(=O)c7ccc(C(c8ccc9c(c8)C(=O)N(*)C9=O)(C(F)(F)F)C(F)(F)F)cc7C6=O)cc5C(F)(F)F)cc4)c4ccccc4-c4ccccc43)cc2)c(C(F)(F)F)c1 (repeat unit)"
result_type = "CO2 permeability"
scale_unit = "Barrer"
reported_measurement = 61.8

[[record]]
compound = "*C1C(*)C2CC1C1C2C([Si](C)(C)C)C1[Si](C)(C)C (repeat unit)"
result_type = "CO2 permeability"
scale_unit = "Barrer"
reported_measurement = 11300

[[record]]
compound = "*c1ccc(Oc2ccc(C(C)(C)c3ccc(Oc4ccc(N5C(=O)c6ccc(C(=O)c7ccc8c(c7)C(=O)N(*)C8=O)cc6C5=O)cc4)cc3)cc2)cc1 (repeat unit)"
result_type = "CO2 permeability"
scale_unit = "Barrer"
reported_measurement = 2.8

[[record]]
compound = "*c1c(C)cc(-c2cc(C)c(N3C(=O)c4ccc(Oc5cc(C)c(Oc6ccc7c(c6)C(=O)N(*)C7=O)c(C)c5C)cc4C3=O)c(C)c2)cc1C (repeat unit)"
result_type = "CO2 permeability"
scale_unit = "Barrer"
reported_measurement = 39

[[record]]
compound = "*c1ccc(Oc2ccc(N3C(=O)c4ccc([Si](C)(C)c5ccc6c(c5)C(=O)N(*)C6=O)cc4C3=O)cc2)cc1 (repeat unit)"
result_type = "CO2 permeability"
scale_unit = "Barrer"
reported_measurement = 3.31

